- measurementNotes: Selectivity index, ratio of IC50 for African green monkey Vero cells to IC50 for chloroquine-resistant Plasmodium falciparum W2
- Assay type: toxicity
- conditionLabel: read-out: Ratio IC50
The entries below come with measured selectivity ratio values attached.
readout: selectivity ratio

>>> reportedmeasurement("Cc1cc(N(CCCNc2ccnc3cc(Cl)ccc23)Cc2ccc3c(c2)OCO3)nc(Cl)n1")
"> 8.4"
>>> reportedmeasurement("Cc1cc(N(CCNc2ccnc3cc(Cl)ccc23)Cc2ccc3c(c2)OCO3)nc(N2CCCC2)n1")
"> 243"
>>> reportedmeasurement("Cc1cc(N2CCCCC2)nc(N(CCCNc2ccnc3cc(Cl)ccc23)Cc2ccc3c(c2)OCO3)n1")
"> 24.2"
